Values were extracted from patent US11198704B2.

- MEASUREMENT NOTES: Hydrodynamic radius and size distribution of micelles by dynamic light scattering (DLS)
- Type: physicochemical
- MEASUREMENT PARAMETERS: detergent 1.0% by weight
Can you tell me Rh (nm), hydrodynamic radius of micelles for the items I'm about to list?
Numeric answer only, unit nm assumed.

Problem: Reported Rh (nm), hydrodynamic radius of micelles for CCCCCCCCCCCOC[C@@H](O[C@@H]1OC(CO)[C@@H](O[C@H]2OC(CO)[C@@H](O)C(O)C2O)C(O)C1O)[C@@H](COCCCCCCCCCCC)O[C@@H]1OC(CO)[C@@H](O[C@H]2OC(CO)[C@@H](O)C(O)C2O)C(O)C1O (some centres unmarked) [B-BTM-C11] : what is it?
Result: 3.5

Problem: Reported Rh (nm), hydrodynamic radius of micelles for CCCCCCCCCCOC[C@H](O[C@@H]1OC(CO)[C@@H](O[C@H]2OC(CO)[C@@H](O)C(O)C2O)C(O)C1O)[C@@H](COCCCCCCCCCC)O[C@@H]1OC(CO)[C@@H](O[C@H]2OC(CO)[C@@H](O)C(O)C2O)C(O)C1O (some centres unmarked) [M-BTM-C10] : what is it?
Result: 3.5

Problem: Reported Rh (nm), hydrodynamic radius of micelles for CCCCCCCCCCCOC[C@H](O[C@@H]1OC(CO)[C@@H](O[C@H]2OC(CO)[C@@H](O)C(O)C2O)C(O)C1O)[C@@H](COCCCCCCCCCCC)O[C@@H]1OC(CO)[C@@H](O[C@H]2OC(CO)[C@@H](O)C(O)C2O)C(O)C1O (some centres unmarked) [M-BTM-C11] : what is it?
Result: 4.7

Problem: Reported Rh (nm), hydrodynamic radius of micelles for CCCCCCCCCOC[C@H](O[C@@H]1OC(CO)[C@@H](O[C@H]2OC(CO)[C@@H](O)C(O)C2O)C(O)C1O)[C@@H](COCCCCCCCCC)O[C@@H]1OC(CO)[C@@H](O[C@H]2OC(CO)[C@@H](O)C(O)C2O)C(O)C1O (some centres unmarked) [M-BTM-C9] : what is it?
Result: 3.2

Problem: Reported Rh (nm), hydrodynamic radius of micelles for CCCCCCCCCCCOC[C@H](O[C@@H]1OC(CO)[C@@H](O[C@H]2OC(CO)[C@@H](O)C(O)C2O)C(O)C1O)[C@H](COCCCCCCCCCCC)O[C@@H]1OC(CO)[C@@H](O[C@H]2OC(CO)[C@@H](O)C(O)C2O)C(O)C1O (some centres unmarked) [A-BTM-C11] : what is it?
Result: 3.5

----------
- MEASUREMENT NOTES: Critical micelle concentration (CMC) using diphenylhexatriene (DPH) fluorescent stain
- Format: physicochemical
- MEASUREMENT PARAMETERS: aqueous solution
- Text: A method of measuring the CMC is not particularly limited, but the CMC may be measured using methods well known in the related art. For example, the CMC may be measured by a fluorescence staining method using diphenylhexatriene (DPH). […]
MEASURED METRIC: CMC (% by weight)

Problem: Reported CMC (% by weight) for CCCCCCCCCCOC[C@@H](O[C@@H]1OC(CO)[C@@H](O[C@H]2OC(CO)[C@@H](O)C(O)C2O)C(O)C1O)[C@@H](COCCCCCCCCCC)O[C@@H]1OC(CO)[C@@H](O[C@H]2OC(CO)[C@@H](O)C(O)C2O)C(O)C1O (stereo partly drawn) : what is it?
Result: ~0.0014 % by weight

Problem: Reported CMC (% by weight) for CCCCCCCCCCCOC[C@H](O[C@@H]1OC(CO)[C@@H](O[C@H]2OC(CO)[C@@H](O)C(O)C2O)C(O)C1O)[C@@H](COCCCCCCCCCCC)O[C@@H]1OC(CO)[C@@H](O[C@H]2OC(CO)[C@@H](O)C(O)C2O)C(O)C1O (stereo partly drawn) : what is it?
Result: ~0.0006 % by weight

Problem: Reported CMC (% by weight) for CCCCCCCCCOC[C@H](O[C@@H]1OC(CO)[C@@H](O[C@H]2OC(CO)[C@@H](O)C(O)C2O)C(O)C1O)[C@H](COCCCCCCCCC)O[C@@H]1OC(CO)[C@@H](O[C@H]2OC(CO)[C@@H](O)C(O)C2O)C(O)C1O (stereo partly drawn) : what is it?
Result: ~0.0022 % by weight

Problem: Reported CMC (% by weight) for CCCCCCCCCCCOC[C@@H](O[C@@H]1OC(CO)[C@@H](O[C@H]2OC(CO)[C@@H](O)C(O)C2O)C(O)C1O)[C@@H](COCCCCCCCCCCC)O[C@@H]1OC(CO)[C@@H](O[C@H]2OC(CO)[C@@H](O)C(O)C2O)C(O)C1O (stereo partly drawn) : what is it?
Result: ~0.0009 % by weight

Problem: Reported CMC (% by weight) for CCCCCCCCCCCOC[C@H](O[C@@H]1OC(CO)[C@@H](O[C@H]2OC(CO)[C@@H](O)C(O)C2O)C(O)C1O)[C@H](COCCCCCCCCCCC)O[C@@H]1OC(CO)[C@@H](O[C@H]2OC(CO)[C@@H](O)C(O)C2O)C(O)C1O (stereo partly drawn) : what is it?
Result: ~0.0008 % by weight

Problem: Reported CMC (% by weight) for CCCCCCCCCOC[C@H](O[C@@H]1OC(CO)[C@@H](O[C@H]2OC(CO)[C@@H](O)C(O)C2O)C(O)C1O)[C@@H](COCCCCCCCCC)O[C@@H]1OC(CO)[C@@H](O[C@H]2OC(CO)[C@@H](O)C(O)C2O)C(O)C1O (stereo partly drawn) : what is it?
Result: ~0.0017 % by weight

Problem: Reported CMC (% by weight) for CCCCCCCCCCOC[C@H](O[C@@H]1OC(CO)[C@@H](O[C@H]2OC(CO)[C@@H](O)C(O)C2O)C(O)C1O)[C@H](COCCCCCCCCCC)O[C@@H]1OC(CO)[C@@H](O[C@H]2OC(CO)[C@@H](O)C(O)C2O)C(O)C1O (stereo partly drawn) : what is it?
Result: ~0.0012 % by weight

Problem: Reported CMC (% by weight) for CCCCCCCCCCOC[C@H](O[C@@H]1OC(CO)[C@@H](O[C@H]2OC(CO)[C@@H](O)C(O)C2O)C(O)C1O)[C@@H](COCCCCCCCCCC)O[C@@H]1OC(CO)[C@@H](O[C@H]2OC(CO)[C@@H](O)C(O)C2O)C(O)C1O (stereo partly drawn) : what is it?
Result: ~0.0009 % by weight

Problem: Reported CMC (% by weight) for CCCCCCCCCCCCO[C@@H]1O[C@H](CO)[C@@H](O[C@H]2O[C@H](CO)[C@@H](O)[C@H](O)[C@H]2O)[C@H](O)[C@H]1O [DDM, n-dodecyl-β-D-maltopyranoside, reference compound] : what is it?
Result: ~0.0087 % by weight
